Source of measurements: patent US20230250096A1

Target: menin/MLL (terbium chelate-labeled menin, FITC-MBM1 peptide) (Homo sapiens, UniProt O00255, T541A)
Construct: Menin (a.a 1-610-6xhis tag, 2.3 mg/mL in 20 mM Hepes)
Sequence (O00255 with tags, fused parts or gaps T541A): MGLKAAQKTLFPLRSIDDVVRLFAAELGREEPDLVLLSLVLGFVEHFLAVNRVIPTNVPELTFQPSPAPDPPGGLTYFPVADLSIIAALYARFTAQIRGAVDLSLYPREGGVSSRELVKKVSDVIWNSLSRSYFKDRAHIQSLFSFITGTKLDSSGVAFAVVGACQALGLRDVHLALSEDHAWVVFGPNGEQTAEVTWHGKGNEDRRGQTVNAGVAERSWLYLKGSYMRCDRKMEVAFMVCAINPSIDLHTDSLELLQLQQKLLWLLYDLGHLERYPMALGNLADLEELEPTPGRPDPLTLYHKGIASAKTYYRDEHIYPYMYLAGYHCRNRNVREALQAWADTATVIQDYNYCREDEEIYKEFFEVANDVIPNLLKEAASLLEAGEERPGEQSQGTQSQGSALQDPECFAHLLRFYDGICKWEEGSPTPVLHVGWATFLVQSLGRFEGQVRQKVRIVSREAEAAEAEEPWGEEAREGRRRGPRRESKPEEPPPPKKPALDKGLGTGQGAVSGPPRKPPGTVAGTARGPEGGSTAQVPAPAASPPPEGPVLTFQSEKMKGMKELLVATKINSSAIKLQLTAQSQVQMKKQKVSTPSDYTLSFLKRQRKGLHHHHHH
Assay: Menin/MLL homogenous time-resolved fluorescence (HTRF) assay
Conditions: 30 min incubation
pIC50: −log10 of the molar value.
We use 10 as the dividing line for pIC50: on or above the line is Criterion met, below is Criterion not met.

Consider the worked cases shown below.
1) CC(=O)N1CCC([C@H](C)N2CC[C@H](Cc3cn(-c4ccc(F)cc4[S@@](=N)(=O)C(C)C)c4cncc(C)c34)C2)CC1 (single isomer, unassigned) [Compound 233b] ... Criterion not met
2) Cc1cncc2c1c(C[C@@H]1CCN(C[C@H]3CCNC(=O)CC3)C1)cn2-c1ccc(F)cc1C(=O)N1CCC2CC21 (single isomer, unassigned) [Compound 351a] ... Criterion met
3) Cc1cncc2c1c(CC1CCN(CC3CNC(=O)C3)CC1)cn2-c1ccc(F)cc1C(=O)N(C)C(C)C (single isomer, unassigned) [Compound 186a] ... Criterion not met
4) Cc1ccc(CN2CC(Cc3cn(-c4ccc(F)cc4C(=O)N(C)C(C)C)c4cncc(C)c34)C2)nn1 ... Criterion not met
5) CC(=O)NC1CCC(N2CC[C@H](Cc3cn(-c4ccc(F)cc4C(=O)N(C)C(C)C)c4cncc(C)c34)C2)CC1 (some centres unmarked) [Compound 211] ... Criterion met
6) Cc1cncc2c1c(CC1CN([C@@H](C)C3CCS(=O)(=O)CC3)C1)cn2-c1ccc(F)cc1C(=O)N(C)C(C)C (single isomer, unassigned) [Compound 213b] ... Criterion not met
7) CC(=O)N1CC2CC1C2C(C)N1CC(Cc2cn(-c3ccc(F)cc3C(=O)N(C)C(C)C)c3cncc(C)c23)C1 (centres unmarked) ... Criterion not met
8) CC(=O)N1CCN([C@H]2C[C@@H]([C@H](C(C)C)N3CC(Cc4cn(-c5ccc(F)cc5C(=O)N(C)C(C)C)c5cncc(C)c45)C3)C2)CC1 (single isomer, unassigned) [Compound 32b] ... Criterion not met

Q. Is pIC50 at least 10? Consider `CC(=O)N1CC(CN2CCC(Cc3cn(-c4ccc(F)cc4C(=O)N(C)C(C)C)c4cncc(C)c34)CC2)C1`
A. Criterion not met

Q. Confirm if pIC50 reported for the compound CC(=O)N1CCC(CN2CC[C@H](Cc3cn(-c4ccc(F)cc4[S@]4(=O)=NCCC4)c4cncc(C)c34)C2)CC1 (single isomer, unassigned) [Compound 224b] is 10 or above.
A. Criterion not met

Q. Identify whether the reported pIC50 of the following compound is 10 or greater: CC(=O)N1CCC(CN2CC[C@@H](Cc3cn(-c4ccc(F)cc4C(=O)N4CCC(O)C4C)c4cncc(C)c34)C2)CC1 (stereo in doubt)
A. Criterion not met

Q. Please indicate if the recorded pIC50 for `Cc1cncc2c1c(CC1CCN(CC3CCOCC3)CC1)cn2-c1ccc(F)cc1C(=O)N(C)C(C)C` meets or exceeds 10.
A. Criterion not met

Q. Is it the case that CC(=O)N1CCC(CN2CC[C@@H](Cc3cn(-c4ccc(F)cc4[S@]4(=O)=NCCC4)c4cncc(C)c34)C2)CC1 (single isomer, unassigned) [Compound 214b] has pIC50 reaching or exceeding 10?
A. Criterion not met
